Below is a list of entries, each paired with its recorded %Inh value.
- Test system: FGFR1;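 also: KINOMEscan kinase panel screen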
- assay.conditions: concentration: 1 μM, replicates: in singlicate; n = 1
parameter.measured: %Inh

• CCc1ccc(-c2ccc3c(c2)-c2c(cnn2C)S(=O)(=O)N3C)cc1 = 3%
• Cc1ccc(C(=O)Nc2ccc(Nc3ccnc4cc(-c5nccs5)ccc34)cc2O)cc1.Cl [GW494702] = 0%
• CCS(=O)(=O)c1ccc(OC)c(Nc2nccc(-c3c(-c4cccc(NC(=O)c5c(F)cccc5F)c4)nn4ncccc34)n2)c1 [GSK326180] = 0%
• Cl.NC(=O)c1cccc(Nc2nccc(Nc3ccc(Oc4c(Cl)cccc4Cl)c(Cl)c3)n2)c1 [GW659009] = 0%
• COc1cccc(NC(=O)NC2CCN(c3ccnc(Nc4cc(OC)c(OC)c(OC)c4)n3)C2)c1 (centres unmarked) [GSK1379763] = 0%
